Give inhibition for every item shown.
# assayed.target: CB1 (Rattus norvegicus)
# Sequence (P20272 whole entry): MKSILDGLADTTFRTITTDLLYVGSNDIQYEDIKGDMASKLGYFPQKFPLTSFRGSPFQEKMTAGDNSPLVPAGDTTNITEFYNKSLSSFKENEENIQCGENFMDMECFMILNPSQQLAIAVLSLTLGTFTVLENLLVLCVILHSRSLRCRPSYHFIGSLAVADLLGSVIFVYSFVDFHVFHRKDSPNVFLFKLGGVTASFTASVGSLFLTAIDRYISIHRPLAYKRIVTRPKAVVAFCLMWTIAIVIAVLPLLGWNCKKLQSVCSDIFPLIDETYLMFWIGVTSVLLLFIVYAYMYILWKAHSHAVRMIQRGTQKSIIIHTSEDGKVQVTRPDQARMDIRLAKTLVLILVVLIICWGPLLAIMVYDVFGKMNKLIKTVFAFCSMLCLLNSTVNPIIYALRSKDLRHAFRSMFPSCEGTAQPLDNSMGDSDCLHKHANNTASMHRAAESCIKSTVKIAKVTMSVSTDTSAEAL
# test.summary: Rat CB1 receptor binding using brain membrane, [3H]SR141716A displacement (Protocol I)
# Design: CB1 receptor present in a rat brain membrane preparation; from tissue; host or cells: rat brain membrane; dose or concentration left out as unconfirmed
# details: 1 h; rat brain membrane, [3H]SR141716A displacement; read-out: % Displacement Protocol I
Give the number; % is assumed, so skip it.

Query: Fill in the blank: the reported inhibition of O=C(NNc1cccc(F)c1)c1nn(-c2ccc(Cl)cc2)c2c1C1CCC2C1 (stereo not shown) is ____.
Result: 73.2

Query: # lookup: inhibition of O=C(NCc1ccc(F)cc1)c1nn(-c2ccc(Cl)cc2)c2c1C1CCC2C1 (stereo not shown)
Result: 38.4

Query: Looking for the measured inhibition of O=C(NNc1ncccc1Cl)c1nn(-c2ccc(Cl)cc2)c2c1C1CC3CC(C1)CC2C3 , can you help?
Result: 89.6

Query: Quick one: inhibition of O=C(NNc1ccc(F)cc1)c1nn(-c2ccc(Cl)cc2)c2c1C1CCC2C1 (stereo not shown) ?
Result: 36.3

----------
For each entry below, report its melting point value.

Query: Reported melting point for O=C(NCc1c(F)cccc1F)c1nn(-c2ccc(Cl)cc2Cl)c2c1C1CCC2C1 (stereo not shown) [Example 248] : what is it?
Result: 130 to 133 °C

Query: Could you tell me which melting point is on file for CC(C)(C)c1ccc(NC(=O)c2nn(-c3ccc(Cl)cc3)c3c2C2CCC3C2)cc1 (stereo not shown) [Example 219] ?
Result: 76 to 78 °C

Query: # get_value(readout='melting point', item= O=C(NC1CCC1)c1nn(-c2ccc(F)cc2F)c2c1C1CCC2C1 (stereo not shown) [Example 315] )
Result: 123 to 125 °C

Query: Bench note: what melting point did O=C(NCc1cccnc1)c1nn(-c2ccc(Cl)cc2)c2c1C1CC3CC(C1)CC2C3 [Example 104] show?
Result: 180 °C

----------
# assayed.target: UniProtKB P20272
# test.summary: Rat CB1 receptor binding using brain membrane, [3H]SR141716A displacement (Protocol I)
# Set-up: CB1 receptor present in a rat brain membrane preparation; from tissue; host or cells: rat brain membrane; dose or concentration left out as unconfirmed
# details: 1 h; rat brain membrane, [3H]SR141716A displacement; read-out: % Displacement Protocol I
Exercise: state measured inhibition for each of the compounds provided.
Output spec: scalar in %, unitless text.

Query: # query: inhibition of entry O=C(NNc1ccc(Cl)cc1)c1n[nH]c2c1C1(c3ccc(Cl)cc3)CCC2C1 (stereo not shown)
Result: 47.1

Query: Using the record for O=C(NN1CCCCC1)c1nn(-c2ccc(Cl)cc2Cl)c2c1C1CCC2C1 (stereo not shown) , report its inhibition.
Result: 41

Query: Data request, read-out inhibition, for Cc1ccc(-n2nc(C(=O)NCc3ccccc3Cl)c3c2C2CC4CC(CC3C4)C2)cc1
Result: 38.9

Query: Value lookup for inhibition; key = C[C@@H](NC(=O)c1nn(-c2ccc(Cl)cc2Cl)c2c1C1CCC2C1)c1ccccc1 (stereo partly shown)
Result: 63

----------
# assayed.target: hCB2 (Homo sapiens, UniProt P34972)
# Sequence (P34972 whole entry): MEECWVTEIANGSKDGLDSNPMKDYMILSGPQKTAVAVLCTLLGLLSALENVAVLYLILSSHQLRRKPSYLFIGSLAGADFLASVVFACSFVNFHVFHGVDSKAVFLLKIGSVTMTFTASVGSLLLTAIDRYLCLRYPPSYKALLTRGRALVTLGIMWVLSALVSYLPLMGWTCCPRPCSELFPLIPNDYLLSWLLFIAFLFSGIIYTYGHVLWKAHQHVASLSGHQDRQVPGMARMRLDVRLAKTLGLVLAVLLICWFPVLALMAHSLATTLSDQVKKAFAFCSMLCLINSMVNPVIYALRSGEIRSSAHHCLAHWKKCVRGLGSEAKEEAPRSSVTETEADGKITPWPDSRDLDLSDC
# test.summary: Antagonism of CB2 receptors expressed in CHO cells, cAMP assay against CP 55,940 (Protocol IX.1)
# Assay type: cell-based
# Design: expressed in transfected cells; host or cells: CHO (h-CB2/CHO, G418-selected)
# details: CHO, h-CB2/CHO cells, vs 10 nM CP 55,940
measured.endpoint: inhibition at 10 µM (%)
Numeric only. Scale: %

Query: Record lookup: for hCB2 (Homo sapiens, UniProt P34972), what inhibition at 10 µM belongs to O=C(NNc1cccc(F)c1)c1nn(-c2ccc(Cl)cc2Cl)c2c1C1CCC2C1 (stereo not drawn) [Example 266] ?
Result: 27.7

Query: Query inhibition at 10 µM on hCB2 (Homo sapiens, UniProt P34972) for O=C(NC1CCC1)c1nn(-c2ccc(F)cc2F)c2c1C1CCC2C1 (stereo not drawn) [Example 315]
Result: 16.1

Query: Query for hCB2 (Homo sapiens, UniProt P34972): what inhibition at 10 µM does the record show for CN(NC(=O)c1nn(-c2ccc(Cl)cc2)c2c1C1CCC2C1)C1CCCCC1 (stereo not drawn) [Example 213] ?
Result: 22.1

----------
For each of the compounds below, state its inhibition.
# assayed.target: UniProt P20272
# test.summary: Rat CB1 receptor binding using brain membrane, [3H]SR141716A displacement (Protocol I)
# Parameters: CB1 receptor present in a rat brain membrane preparation; from tissue; host or cells: rat brain membrane; dose or concentration left out as unconfirmed
# details: 1 h, read-out: % Displacement Protocol I, rat brain membrane, [3H]SR141716A displacement
Where a name gives a salt, the structure may show the parent alone.

Query: GET /values?readout=inhibition&system=UniProt P20272&item= Cl.O=C(NNc1ccc(F)cc1)c1nn(-c2ccc(Cl)cc2)c2c1C1CC3CC(C1)CC2C3 [Example 131, hydrochloride]
Result: 85.2%

Query: Checklist item: inhibition tested on UniProt P20272, entry O=C(NCc1ccccc1Cl)c1nn(-c2ccc(Cl)cc2)c2c1C1CCC2C1 (stereo not drawn) , value?
Result: 68.6%

Query: Give inhibition (UniProt P20272) of the following compound: O=C(NNc1ccccc1Cl)c1nn(-c2ccc(Cl)cc2)c2c1C1CC3CC(C1)CC2C3 [Example 124, hydrochloride]
Result: 80.1%

Query: Fill in the recorded inhibition for this compound, with UniProt P20272 as test system: O=C(NN(c1ccccc1)c1ccccc1)c1nn(-c2ccc(Cl)cc2)c2c1C1CC3CC(C1)CC2C3
Result: 76.7%

Query: Param readout= inhibition; system= UniProt P20272; entry= O=C(NC1CCCC1)c1nn(-c2ccc(Cl)cc2)c2c1C1CCC2C1 (stereo not drawn) ; returns value.
Result: 68.4%

Query: Query for UniProt P20272: what inhibition does the record show for CC12CCC(C1)C(C)(C)C2NC(=O)c1nn(-c2ccc(Cl)cc2Cl)c2c1C1CCC2C1 (stereo not drawn) ?
Result: 92.5%

Query: # get_value(readout= inhibition, system= UniProt P20272) for O=C(NC1CCCCC1)c1nn(-c2ccccc2Br)c2c1C1CCC2C1 (stereo not drawn)
Result: 11.7%

Query: Look up inhibition with UniProt P20272 for this compound: Cl.O=C(NNc1ccccc1)c1nn(-c2ccc(Cl)cc2)c2c1C1CC3CC(C1)CC2C3 [Example 122, hydrochloride]
Result: 66.4%

Query: Form: Entry = O=C(NC1CCCCC1)c1nn(-c2ccc(F)cc2F)c2c1C1CCC2C1 (stereo not drawn) | System = UniProt P20272 | inhibition = ____
Result: 80.3%

Query: Give inhibition (UniProt P20272) of the following compound: O=C(NC1CCCCC1)c1nn(-c2ccc(Cl)cc2)c2c1C1CC3CC(C1)CC2C3
Result: 78.6%

Query: Record lookup: for UniProt P20272, what inhibition belongs to O=C(NCc1ccc(C(F)(F)F)cc1)c1nn(-c2ccc(Cl)cc2)c2c1C1CC3CC(C1)CC2C3 ?
Result: 24.9%

Query: What is its inhibition for UniProt P20272? Entry: O=C(NCc1ccccc1Br)c1nn(-c2ccc(Cl)cc2)c2c1C1CCC2C1 (stereo not drawn)
Result: 81.6%

Query: // lookup inhibition | system=UniProt P20272 | key= CC(C)(NC(=O)c1nn(-c2ccc(F)cc2F)c2c1C1CCC2C1)c1ccccc1 (stereo not drawn)
Result: 111%

Query: Recorded inhibition for O=C(NC1CCCCC1)c1nn(-c2ccc(F)cc2)c2c1C1CCC2C1 (stereo not drawn) with UniProt P20272, please?
Result: 62%

Query: // lookup inhibition | system=UniProt P20272 | key= Cl.O=C(NN1CCCCC1)c1nn(-c2ccc(Cl)cc2Cl)c2c1C1CCC2c2ccccc21 (stereo not drawn) [Example 503, hydrochloride]
Result: 81.2%

----------
# assayed.target: hCB2 (Homo sapiens, UniProt P34972)
# test.summary: In vitro binding assay using hCB2-CHO membranes, [3H]-CP-55,940 displacement (Protocol IV)
# Set-up: expressed in transfected cells; host or cells: CHO (hCB2-CHO, generated in-house)
# details: hCB2-CHO membranes, [3H]-CP-55,940 displacement
Kindly supply the reported % Displacement Protocol IV values for the records listed here.
State just the number; it will be interpreted in %.

Query: Value lookup for % Displacement Protocol IV; key = C[C@H](NC(=O)c1nn(-c2ccc(F)cc2F)c2c1C1CC3CC(C1)CC2C3)c1ccccc1
Result: 68.16

Query: Requested field: % Displacement Protocol IV. Item: CCCCCn1nc(C(=O)NC(C)(C)c2ccccc2)c2c1C1CC3CC(CC2C3)C1 [Example 190b]
Result: 96.07

Query: Could you tell me which % Displacement Protocol IV is on file for COC(=O)[C@H](NC(=O)c1nn(-c2ccc(F)cc2F)c2c1C1CC3CC(C1)CC2C3)c1ccccc1 ?
Result: 70.19

Query: Endpoint output: % Displacement Protocol IV of O=C(NC12CC3CC(CC(C3)C1)C2)c1nn(-c2ccc(F)cc2)c2c1C1CC3CC(C1)CC2C3 . Value?
Result: 95.4

Query: % Displacement Protocol IV lookup needed for COC(=O)[C@@H](NC(=O)c1nn(-c2ccc(F)cc2F)c2c1C1CCC2C1)c1ccccc1 (some centres unmarked) , thanks.
Result: 82.09

Query: Give the measured % Displacement Protocol IV of O=C(NCc1ccccc1)c1nn(-c2ccccc2Cl)c2c1C1CC3CC(C1)CC2C3 .
Result: 12.78

Query: For COC(=O)[C@H](CC(C)C)NC(=O)c1nn(-c2ccc(F)cc2F)c2c1C1CCC2C1 (some centres unmarked) , what is its reported % Displacement Protocol IV?
Result: 100.00

Query: Which % Displacement Protocol IV value belongs to O=C(NCc1ccccc1)c1nn(-c2ccccc2)c2c1C1CC3CC(C1)CC2C3 ?
Result: 27.16

Query: Tell me the measured % Displacement Protocol IV of O=C(c1n[nH]c2c1C1CC3CC(CC2C3)C1)N1CCCCC1 , please.
Result: 36.01

Query: Which % Displacement Protocol IV is reported for this molecule? COC(=O)[C@H](NC(=O)c1nn(-c2ccc(F)cc2F)c2c1C1CCC2C1)c1ccccc1 (some centres unmarked)
Result: 86.68

Query: Would you mind telling me what % Displacement Protocol IV value was observed for O=C(Nc1ccccc1)c1nn(-c2ccc(Cl)cc2)c2c1C1CC3CC(C1)CC2C3 ?
Result: 9.86

Query: Using the record for CC(C)(C)NC(=O)c1nn(-c2ccc(F)cc2F)c2c1C1CCC2c2ccccc21 (centres unmarked) , report its % Displacement Protocol IV.
Result: 33.00

Query: What value of % Displacement Protocol IV has been recorded for this entry: O=C(NCc1ccccc1)c1nn(-c2ccc(Cl)cc2Cl)c2c1C1CC3CC(C1)CC2C3
Result: 18.21

Query: Which % Displacement Protocol IV value belongs to O=C(c1nn(-c2ccccc2)c2c1C1CC3CC(C1)CC2C3)N1CCCCC1 ?
Result: 0.56

Query: Record request: % Displacement Protocol IV value, item CC(C)(C)NC(=O)c1nn(-c2ccc(F)cc2F)c2c1C1CCC2(C)C1(C)C (centres unmarked)
Result: 61.92

Query: For O=C(c1nn(-c2ccc(Cl)cc2)c2c1C1CCC2C1)N1CCCCC1 (centres unmarked) , what is its reported % Displacement Protocol IV?
Result: 17.69

Query: So what does the record say about % Displacement Protocol IV for O=C(NCC1CCOCC1)c1nn(-c2ccc(F)cc2F)c2c1C1CCC2C1 (centres unmarked) ?
Result: 66.65
